Experiment: NCI Yeast Anticancer Drug Screen. Data for the mec2-1 strain (AID 157)
Details: S. cerevisiae mec2-1 strain, at 5.0 µM (retest, dose inferred, filed as 0.5), active compounds read high
The panel holds about 79,000 compounds, 15% with a hit somewhere; the sample as a whole holds those more often. Residues, ends and D or L forms follow the SMILES beside them. *: point of attachment. Fmoc = O=C(OCC1c2ccccc2-c2ccccc21)*; Boc = CC(C)(C)OC(=O)*
Answer each item with its documented growth inhibition.
Write down the numeric answer in % and omit the unit.

### Prompt Find the recorded growth inhibition belonging to COc1ccc(C2CC(C)(N3CCCC3)Oc3cc4c(cc32)OCO4)cc1 (stereo not given) and report it.
### Response 11

### Prompt And the next one, CC(C)(C)OC(=O)NCCCCC(NC(=O)C(Cc1c[nH]c2ccccc12)NC(=O)OCC1c2ccccc2-c2ccccc21)C(=O)O (stereo not given) (Fmoc-Trp-Lys(Boc)-OH; configuration not given here) ?
### Response 1

### Prompt Also c1ccc2c(c1)ccn2CCc1c[nH]c2ccccc12 ?
### Response -5

### Prompt Follow-up item: CC(C)=CCC/C(C)=C/CN1C(=O)C=CC1=O
### Response -16

### Prompt Similarly, O=C1Nc2ccc(Br)cc2C1=Nc1cccnc1 ?
### Response 47

====

Experiment: NCI Yeast Anticancer Drug Screen. Data for the mec2-1 strain (AID 157)
Settings: S. cerevisiae mec2-1 strain, at 33.0 µM, active compounds read high
Procedure: Growth inhibition of yeast strains with defined genetic alterations is measured as a screen for potential anti-cancer activity. Selected strains with alterations in DNA damage repair or cell cycle control were exposed to compounds and growth inhibition was measured relative to vehicle treated controls. The strain used in this assay is mec2-1
The panel holds about 79,000 compounds, 15% with a hit somewhere; the sample as a whole holds those more often. Residues, ends and D or L forms follow the SMILES beside them. *: point of attachment. Fmoc = O=C(OCC1c2ccccc2-c2ccccc21)*; Boc = CC(C)(C)OC(=O)*
Y means recorded growth inhibition is 80% or above; N means it is below 80%.

### Prompt Check the entry Cc1ccnc2c(O)cccc12 : does growth inhibition equal or exceed 80%?
### Response Y

### Prompt Continue with O=C(O)c1cc2c(cc1S(=O)(=O)O)C1C(C3C2C2(Cl)C(Cl)=C(Cl)C3(Cl)C2(Cl)Cl)C2(Cl)C(Cl)=C(Cl)C1(Cl)C2(Cl)Cl (stereo not drawn)
### Response Y

### Prompt Also CC1(C)C(O)OC(O)C1(C)C (stereo not drawn) ?
### Response N

### Prompt How about O=C(NNc1ccccc1)C(CCCCNS(=O)(=O)Cc1ccccc1)NS(=O)(=O)Cc1ccccc1 (stereo not drawn) ?
### Response N

### Prompt Another: CC1(C2CC2)C(C#N)(C#N)C1(C#N)C#N
### Response N

### Prompt Another compound: COc1ccc2nc3cccc([N+](=O)[O-])c3c(NCCCCCC(=O)O)c2c1
### Response Y

### Prompt Also CC(C)(C)OC(=O)NCCCCC(NC(=O)C(Cc1c[nH]c2ccccc12)NC(=O)OCC1c2ccccc2-c2ccccc21)C(=O)O (stereo not drawn) (Fmoc-Trp-Lys(Boc)-OH; configuration not given here) , if possible.
### Response N

### Prompt Subsequent entry: CCCNC(=O)OCc1c(COC(=O)NCCC)c(-c2ccc(Cl)c(Cl)c2)n2c1CCC2
### Response N

# credit: PubChem BioAssay (NCI)
